Where do the numbers come from? From ChEMBL document CHEMBL1961873.

- assayedSystem: Testis-specific serine/threonine-protein kinase 2 (Homo sapiens) (UniProt Q96PF2)
- Sequence (Q96PF2 whole entry): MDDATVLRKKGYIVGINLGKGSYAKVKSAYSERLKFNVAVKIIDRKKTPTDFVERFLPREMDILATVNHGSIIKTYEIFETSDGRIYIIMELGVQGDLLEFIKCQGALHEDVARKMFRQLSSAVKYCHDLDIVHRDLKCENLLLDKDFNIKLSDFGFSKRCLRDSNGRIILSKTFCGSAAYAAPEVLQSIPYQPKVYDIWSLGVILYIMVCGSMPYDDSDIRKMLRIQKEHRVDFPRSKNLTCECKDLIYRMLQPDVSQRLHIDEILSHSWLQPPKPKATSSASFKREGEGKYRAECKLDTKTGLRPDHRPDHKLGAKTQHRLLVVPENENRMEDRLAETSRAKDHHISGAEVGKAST
- conditionDescription: at 0.1 µM
measuredMetric: inhibition (%)
Give the quantity in %, number only.

Problem: Lab request: please report inhibition under test system Testis-specific serine/threonine-protein kinase 2 (Homo sapiens) (UniProt Q96PF2) for CCn1c(-c2nonc2N)nc2c(C#CC(C)(C)O)nc(O[C@@H](CN)c3ccccc3)cc21;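 note: values are mean inhibition of TSSK2 activity from the GSK PKIS profiling panel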
Solution: 1.41

Problem: Another compound to look at: Cc1cc(-c2ccco2)cc(C)c1/C=C/c1cncc(-c2nn[nH]n2)c1
Solution: 1.46

Problem: // next record COc1cccc(-n2ncc3c(N/N=C/c4ccncc4)ncnc32)c1
Solution: 1.6

Problem: Subsequent entry: NS(=O)(=O)c1ccc(N/C=C2\C(=O)Nc3ccc4ncsc4c32)cc1
Solution: 1.13

Problem: Then this compound: Nc1nonc1-c1nc2cnccc2n1C1CCCCC1
Solution: -1.12

Problem: Entry to check: CCn1c(-c2nonc2N)nc2c(C#CCN)ncc(OCCCN)c21
Solution: -0.97

Problem: Please do the same for Fc1ccc(-c2ncn(C3CCNCC3)c2-c2ccnc(Oc3ccccc3)n2)cc1 as well.
Solution: 0.82
